- Tested on: COLO 205 colon
- test-details: NCI-60 one-dose screen, 48 h (100 = growth as untreated, 0 = no growth, -100 = all killed)
- measurement-setup: 10 µM unless noted
Compounds without any hit were thinned out: in the full panel of roughly 83,000, 20% have a hit.
experimental-endpoint: growth (%)
Please respond with the number in % and leave the unit unwritten.

Recorded growth, per entry:
compound=CCOC(=O)c1ccc2c(c1)c1c(C)c3cccnc3c(C)c1n2C experimental_endpoint=growth units_label=% readout_number=50.3
compound=CN1CCN(Cc2ccc(NC(=O)c3cncc(C#Cc4cnc(N)c5cnccc45)c3)cc2C(F)(F)F)CC1 experimental_endpoint=growth units_label=% readout_number=-20.2

Please turn your attention to the following entry.
# input Consider the compound Cc1ccc2ccccc2c1C[n+]1ccccc1 and give its measured growth.
# output 112
